experiment: Antibacterial activity against Vibrio cholerae O1 CIP0.25-1 harboring Ser to Ile mutation at 83 position in gyrA and parC genes by 2-fold agar dilution method; type: functional
# key: entry, value: MIC

- STRUCTURE NOTATION: "CCn1cc(C(=O)O)c(=O)c2cc(F)c(N3CCNCC3)cc21"
  MIC (µg/mL): 2
- STRUCTURE NOTATION: "C[C@@H]1CN(c2c(F)c(N)c3c(=O)c(C(=O)O)cn(C4CC4)c3c2F)C[C@H](C)N1"
  MIC (µg/mL): 0.125
- STRUCTURE NOTATION: "CN(C)[C@@H]1C(O)=C(C(N)=O)C(=O)[C@@]2(O)C(O)=C3C(=O)c4c(O)cccc4[C@@](C)(O)[C@H]3C[C@@H]12"
  MIC (µg/mL): 4
- STRUCTURE NOTATION: "CCn1cc(C(=O)O)c(=O)c2cc(F)c(N3CCNCC3)nc21"
  MIC (µg/mL): 2
